molecular target: YWHAZ (UniProt E7ESK7); assay: log2 fold change, soluble protein after heating vs DMSO (PISA); higher = thermal stabilisation; K562 cells, 10 uM, 30 min; active = over 0.2 and 3.5 SD of the protein, either way, in both replicates (recomputed)
About 7,900 targets were measured; listed, in parts, are those with a hit and a random draw of the rest. About 0.6% of all pairs of compound and target were hits.
MEASURED_ENDPOINT: log2 fold change
// print number alone

Query the reported log2 fold change for YWHAZ (UniProt E7ESK7); item: `O=C(Nc1nc2ccccc2n1CCN1CCOCC1)c1cccc([N+](=O)[O-])c1`
0.005

Moving on to `c1cc(OCCN2CCCCC2)cc(-c2n[nH]c3ccc(-c4nnc[nH]4)cc23)c1`
0.095

Also check `O=C(O)c1ccc2c(c1)nc(Nc1cccc(Cl)c1)c1ccncc12`
-0.065

Input `Cc1nc(Nc2ncc(C(=O)Nc3c(C)cccc3Cl)s2)cc(N2CCN(CCO)CC2)n1`
-0.094

Same for `CN1CCc2c(c3ccccc3n2Cc2ccc(C(=O)NO)cc2)C1`
0.102

# iterate: `Oc1cc(-c2nc(-c3ccccc3)[nH]c2-c2ccncc2)ccc1Cl`
-0.068

// repeat for `CNCc1ccc(-c2[nH]c3cc(F)cc4c3c2CCNC4=O)cc1` and report
-0.057

* * *

biological target: ZCCHC9 (UniProt Q8N567); experiment: log2 fold change, soluble protein after heating vs DMSO (PISA); higher = thermal stabilisation; K562 cells, 10 uM, 30 min; active = over 0.2 and 3.5 SD of the protein, either way, in both replicates (recomputed)
Sequence (Q8N567 whole entry, looked up): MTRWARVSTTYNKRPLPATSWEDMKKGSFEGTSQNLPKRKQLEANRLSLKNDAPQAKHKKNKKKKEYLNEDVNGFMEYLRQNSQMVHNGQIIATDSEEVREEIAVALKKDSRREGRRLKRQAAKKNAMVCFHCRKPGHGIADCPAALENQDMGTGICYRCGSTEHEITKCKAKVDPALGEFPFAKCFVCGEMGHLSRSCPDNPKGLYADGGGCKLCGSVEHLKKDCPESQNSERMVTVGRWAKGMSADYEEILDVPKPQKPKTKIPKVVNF
Targets with a hit are over-represented here; the source holds about 7,900 in all. About 0.6% of all pairs of compound and target were hits.
MEASURED_ENDPOINT: log2 fold change

Consider the compound `Cn1cc(-c2ccc3c(c2)CCN3C(=O)Cc2cccc(C(F)(F)F)c2)c2c(N)ncnc21` and give its measured log2 fold change.
-0.074 (inactive)

Field entry: CO[C@H]1C[C@@H]2CC[C@@H](C)[C@@](O)(O2)C(=O)C(=O)N2CCCC[C@H]2C(=O)O[C@H]([C@H](C)C[C@@H]2CC[C@H](n3cnnn3)[C@H](OC)C2)CC(=O)[C@H](C)/C=C(\C)[C@@H](O)[C@@H](OC)C(=O)[C@H](C)C[C@H](C)/C=C/C=C/C=C/1C [zotarolimus]
-0.044 (inactive)

Same lookup for `CC(=O)c1cnc2ccc(-c3cc(Cl)c(O)c(Cl)c3)nc2c1N[C@H]1CC[C@H](CN(C)C)CC1` , please.
0.143 (inactive)

Same question for `COc1cc2nc(-c3cc(F)ccc3O)nc(N[C@@H]3CNC[C@H]3C(C)(C)O)c2cc1OC` please.
-0.006 (inactive)

Moving on to `CCCS(=O)(=O)Nc1ccc(F)c(C(=O)c2c[nH]c3ncc(Cl)cc23)c1F`
-0.177 (inactive)

`NC(=O)Nc1cc(-c2cccc(F)c2)sc1C(=O)N[C@H]1CCCNC1` ?
-0.11 (inactive)

Entry `COc1ccc(Cn2ccc3ccc(C(=O)NO)cc32)cc1` please
-0.05 (inactive)

* * *

target: YIPF6 (UniProt Q96EC8); test: log2 fold change, soluble protein after heating vs DMSO (PISA); higher = thermal stabilisation; K562 cells, 10 uM, 30 min; active = over 0.2 and 3.5 SD of the protein, either way, in both replicates (recomputed)
Sequence (Q96EC8 whole entry, looked up): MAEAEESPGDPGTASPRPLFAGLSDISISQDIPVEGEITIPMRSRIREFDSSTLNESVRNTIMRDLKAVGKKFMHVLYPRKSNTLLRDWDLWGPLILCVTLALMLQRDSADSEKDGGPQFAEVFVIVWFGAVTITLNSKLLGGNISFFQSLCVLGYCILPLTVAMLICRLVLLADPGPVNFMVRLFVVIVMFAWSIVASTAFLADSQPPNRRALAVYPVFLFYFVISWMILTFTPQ
Targets with a hit are over-represented here; the source holds about 7,900 in all. About 0.6% of all pairs of compound and target were hits.
Could you label it Condition met if measured log2 fold change is 0.02 or higher, and Condition not met otherwise?

Hi, just wondering whether `O=C1NC(=O)C(c2cnc3ccccn23)=C1c1cn2c3c(cc(F)cc13)CN(C(=O)N1CCCCC1)CC2` shows log2 fold change of 0.02 or higher.
Condition not met

Lookup `C#Cc1cccc(Nc2ncnc3cc(OCCOC)c(OCCOC)cc23)c1`
Condition not met

Also need `O=C1NC(=NCc2cccs2)S/C1=C\c1ccc2ncccc2c1` , thanks.
Condition met

Same lookup for `CCN(CCCOc1ccc2c(Nc3cc(CC(=O)Nc4cccc(F)c4)[nH]n3)ncnc2c1)CCOP(=O)(O)O` , please.
Condition not met

// next record `CC[C@@H]1C(=O)N(C)c2cnc(Nc3ccc(C(=O)N[C@H]4CC[C@H](N5CCN(CC6CC6)CC5)CC4)cc3OC)nc2N1C(C)C`
Condition not met

Would you mind doing `C[C@@H]1COCCN1c1cc(C2(S(C)(=O)=O)CC2)nc(-c2cccc3[nH]ccc23)n1` as well?
Condition met

Can you check `Nc1ccccc1NC(=O)c1ccc(CNC(=O)OCc2cccnc2)cc1` next?
Condition met

Same again, this time with `CN(C)CC(=O)Nc1ccc2[nH]c(=O)c3ccccc3c2c1`
Condition not met

Try `Cc1ncc(-c2ccnc(Nc3ccc(S(C)(=O)=O)cc3)n2)n1C(C)C` next.
Condition not met

Same lookup for `C[C@@H](N)c1ccc(C(=O)Nc2ccnc3[nH]ccc23)cc1` , please.
Condition not met

Now consider `Cc1nc(Nc2n[nH]c3c2CN(C(=O)N[C@H](CN(C)C)c2ccccc2)C3(C)C)c2sccc2n1` and answer again.
Condition not met

Also need `COC(=O)N[C@@H](C)CNc1nccc(-c2cn(C(C)C)nc2-c2cc(Cl)cc(NS(C)(=O)=O)c2F)n1` , thanks.
Condition not met

And the next one, `CO[C@H]1C[C@@H]2CC[C@@H](C)[C@@](O)(O2)C(=O)C(=O)N2CCCC[C@H]2C(=O)O[C@H]([C@H](C)C[C@@H]2CC[C@H](n3cnnn3)[C@H](OC)C2)CC(=O)[C@H](C)/C=C(\C)[C@@H](O)[C@@H](OC)C(=O)[C@H](C)C[C@H](C)/C=C/C=C/C=C/1C` ?
Condition not met

Lookup `Cc1cn(-c2cc(NC(=O)c3ccc(C)c(Nc4nccc(-c5cccnc5)n4)c3)cc(C(F)(F)F)c2)cn1`
Condition met

* * *

molecular target: ZWILCH (UniProt Q9H900); assay: log2 fold change, soluble protein after heating vs DMSO (PISA); higher = thermal stabilisation; K562 cells, 10 uM, 30 min; active = over 0.2 and 3.5 SD of the protein, either way, in both replicates (recomputed)
Sequence (Q9H900 whole entry, looked up): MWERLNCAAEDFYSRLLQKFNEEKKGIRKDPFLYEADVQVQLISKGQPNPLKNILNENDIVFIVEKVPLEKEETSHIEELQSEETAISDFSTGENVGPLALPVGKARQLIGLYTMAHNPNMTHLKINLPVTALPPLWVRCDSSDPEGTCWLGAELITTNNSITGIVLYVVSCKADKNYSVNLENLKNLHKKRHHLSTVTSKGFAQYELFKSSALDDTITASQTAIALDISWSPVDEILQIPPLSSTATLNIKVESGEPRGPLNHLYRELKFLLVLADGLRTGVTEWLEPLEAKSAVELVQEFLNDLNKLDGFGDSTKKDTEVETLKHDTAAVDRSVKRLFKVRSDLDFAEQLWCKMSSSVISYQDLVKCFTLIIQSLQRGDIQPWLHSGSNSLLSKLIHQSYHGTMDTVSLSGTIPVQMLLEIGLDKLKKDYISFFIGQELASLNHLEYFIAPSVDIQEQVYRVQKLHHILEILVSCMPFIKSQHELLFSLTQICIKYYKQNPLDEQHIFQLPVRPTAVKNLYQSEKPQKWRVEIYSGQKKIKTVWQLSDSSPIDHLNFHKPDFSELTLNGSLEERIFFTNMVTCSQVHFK
The full data set covers some 7,900 targets. This sample favours those with a hit. About 0.6% of all pairs of compound and target were hits.
Returns one of satisfied or not satisfied; satisfied when log2 fold change is >= 0.03.

Identify whether the reported log2 fold change of the following compound is 0.03 or greater: `CNC(=O)c1ccccc1Nc1nc(Nc2ccc(N3CCOCC3)cc2OC)ncc1Cl`
not satisfied

Entry `CCCCN(Cc1ccc(C(=O)NO)cc1)C(=O)Nc1ccccc1` please
not satisfied

Param item: `COc1cc(Nc2ncc3c(n2)-c2ccc(Cl)cc2C(c2c(F)cccc2OC)=NC3)ccc1C(=O)O`
not satisfied

Repeat with `Cc1ccc(-n2nc(C(C)(C)C)cc2NC(=O)Nc2ccc(OCCN3CCOCC3)c3ccccc23)cc1`
not satisfied

Another compound to look at: `CN1CCN(c2nc(C3=C(c4c[nH]c5ccccc45)C(=O)NC3=O)c3ccccc3n2)CC1`
not satisfied

Again, but for `O=C(O)c1ccc2c(c1)nc(Nc1cccc(Cl)c1)c1ccncc12`
satisfied

Please give the result for `CN1CCN(CCOc2cc(OC3CCOCC3)c3c(Nc4c(Cl)ccc5c4OCO5)ncnc3c2)CC1` too.
not satisfied

Now consider `Cc1cc(SCc2sc(-c3ccc(C(F)(F)F)cc3)nc2C)ccc1OCC(=O)O` .
not satisfied

Next up: `CC[C@@H]1C(=O)N(C)c2cnc(Nc3ccc(C(=O)N[C@H]4CC[C@H](N5CCN(CC6CC6)CC5)CC4)cc3OC)nc2N1C(C)C`
not satisfied

And `C[C@@H](Oc1cc(-c2cnn(C3CCNCC3)c2)cnc1N)c1c(Cl)ccc(F)c1Cl` ?
not satisfied

Okay, and `FC(F)(F)c1ccc(/C=C/c2nc(COc3ccc(CCCCn4ccnn4)cc3)co2)cc1` ?
satisfied

Moving on to `COC(=O)N[C@@H](C)CNc1nccc(-c2cn(C(C)C)nc2-c2cc(Cl)cc(NS(C)(=O)=O)c2F)n1`
satisfied

Further, for `NC(=O)c1ccc2nc(-c3ccc(Oc4ccc(Cl)cc4)cc3)[nH]c2c1` ?
not satisfied

Consider next the compound `NC1(Cc2ccc(Cl)cc2)CCN(c2ncnc3[nH]ccc23)CC1` in the same way.
not satisfied

Do the same for `C/C(=N\NC(=O)c1cccc(S(=O)(=O)N2CCOCC2)c1)c1cc(Cl)ccc1O` please
satisfied

Record: `Cc1cc(Nc2cc(CN3CCOCC3)c3nc(C)c(Cc4ccc(Cl)cc4F)n3n2)n[nH]1`
not satisfied

Try `O=C1c2ccccc2-c2n[nH]c3cccc1c23` next.
not satisfied

* * *

molecular target: YIPF6 (UniProt Q96EC8); test: log2 fold change, soluble protein after heating vs DMSO (PISA); higher = thermal stabilisation; K562 cells, 10 uM, 30 min; active = over 0.2 and 3.5 SD of the protein, either way, in both replicates (recomputed)
Of roughly 7,900 targets only a part is listed; those with a hit were picked by preference. About 0.6% of all pairs of compound and target were hits.
Lab note: compare log2 fold change against 0.02. Equal or greater, write MET. Smaller, write NOT MET.

Determine whether measured log2 fold change meets or exceeds 0.02 for `CC(C)(C)Cn1c(N)nc2ccc(-c3[nH]c(C(C)(C)C)nc3-c3ccc(F)cc3)nc21`
NOT MET

What about this compound? `CC[C@H](C)n1cc(C)c2c(C(=O)NCc3c(C)cc(C)[nH]c3=O)cc(-c3ccc(N4CCNCC4)nc3)cc21`
NOT MET

Subsequent entry: `CS(=O)(=O)N1CCN(Cc2cc3nc(-c4cccc5[nH]ncc45)nc(N4CCOCC4)c3s2)CC1`
MET

Here is the next compound: `CC[C@H](C)[C@H](NC(=O)[C@H]([C@@H](C)CC)N(C)C(C)=O)C(=O)N[C@H](C(=O)N[C@@H](CC(C)C)C(=O)[C@@]1(C)CO1)[C@@H](C)O`
NOT MET

Try this compound next: `COc1cc(Nc2ncc3c(n2)-c2ccc(Cl)cc2C(c2c(F)cccc2OC)=NC3)ccc1C(=O)O`
MET

Okay, and `O=C1NC(=O)/C(=C\c2ccc3nccnc3c2)S1` ?
MET

Ok, now `Cc1cc(Nc2cc(CN3CCOCC3)c3nc(C)c(Cc4ccc(Cl)cc4F)n3n2)n[nH]1`
NOT MET
